target desc: IDO1 (Homo sapiens)
Sequence (P14902 whole entry): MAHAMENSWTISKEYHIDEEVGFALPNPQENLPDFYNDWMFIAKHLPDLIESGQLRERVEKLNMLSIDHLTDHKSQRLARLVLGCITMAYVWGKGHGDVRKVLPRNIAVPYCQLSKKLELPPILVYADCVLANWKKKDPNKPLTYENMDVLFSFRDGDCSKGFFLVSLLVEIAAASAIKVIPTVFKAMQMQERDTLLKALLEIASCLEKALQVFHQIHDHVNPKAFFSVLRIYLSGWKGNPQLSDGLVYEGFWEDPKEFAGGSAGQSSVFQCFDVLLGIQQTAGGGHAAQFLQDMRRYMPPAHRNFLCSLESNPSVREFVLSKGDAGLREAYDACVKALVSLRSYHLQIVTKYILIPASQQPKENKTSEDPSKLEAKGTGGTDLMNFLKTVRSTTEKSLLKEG
procedure details: IDO1 Human Whole Blood Assay
Type: cell-based
condition description: LPS and IFNγ 100 ng/mL, overnight (18 h), kynurenine by LC/MS/MS, read-out: Human Whole Blood Potency, IC50
readout type: IC50 (nM)

compound=CC(=O)NC1CCN(C(=O)c2nn(CC[C@H]3CC[C@@H](Oc4ncccc4C)CC3)cc2C2CC2)CC1 reading_unit=nM observed_measurement=178
compound="Cc1cccc(N2CCC(C(F)Cn3nc(C(=O)N4C[C@@H](C)O[C@@H](C)C4)c4c3CCC4)CC2)c1C (single isomer, unassigned)" reading_unit=nM observed_measurement=964
compound=CC(=O)NC1CCN(C(=O)c2nn(CC[C@H]3CC[C@@H](Oc4cnccc4C)CC3)c3c2CCC3)CC1 reading_unit=nM observed_measurement=215
compound=Cc1c(F)ccc(N2CCC(CCn3nc(C(=O)N4CCC(F)(CO)CC4)c4c3CCC4)CC2)c1C reading_unit=nM observed_measurement=251
compound=CC(=O)NC1CCN(C(=O)c2nn(CCN3CCN(c4cccc(C)c4C)CC3)c3c2[C@@H]2C[C@@H]2C3)CC1 reading_unit=nM observed_measurement=247
compound=CC(=O)NC1CCN(C(=O)c2nn(CC[C@H]3CC[C@@H](Oc4ccccc4C(F)(F)F)CC3)c3c2CCC3)CC1 reading_unit=nM observed_measurement=130
compound=CC(=O)NC1CCN(C(=O)c2nn(CC[C@H]3CC[C@@H](Oc4ccccc4Cl)CC3)c3c2CCC3)CC1 reading_unit=nM observed_measurement=161

# credit: patent US12152019B2
